- TESTED_ON: delta-type opioid receptor (Rattus norvegicus)
- Sequence (P33533 whole entry): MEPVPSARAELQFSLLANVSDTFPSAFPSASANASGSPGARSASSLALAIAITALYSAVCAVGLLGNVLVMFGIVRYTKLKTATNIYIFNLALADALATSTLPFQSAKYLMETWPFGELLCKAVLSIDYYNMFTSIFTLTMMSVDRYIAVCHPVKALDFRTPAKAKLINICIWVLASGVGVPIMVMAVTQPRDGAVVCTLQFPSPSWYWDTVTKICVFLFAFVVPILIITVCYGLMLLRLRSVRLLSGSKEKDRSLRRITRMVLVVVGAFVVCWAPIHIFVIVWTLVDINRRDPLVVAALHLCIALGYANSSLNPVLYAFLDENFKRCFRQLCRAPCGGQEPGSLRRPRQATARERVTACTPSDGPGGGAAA
- ASSAY_PROTOCOL: inhibition of specific [^3 H] DADLE binding to rat forebrain membranes
- TEST_PARAMETERS: read-out: (Ki) nM, δ receptor (Rat Forebrain); Table 6; [^3 H] DADLE, mean of three experiments
One threshold, 0.4 nM, splits the recorded Ki values: lower ones are criterion met, equal or higher ones are criterion not met.

COMPOUND_SMILES	GROUP_LABEL
Oc1ccc2c3c1O[C@H]1C(=NOc4ccccc4C(F)(F)F)CC[C@@]4(O)[C@@H](C2)N(CC2CC2)CC[C@]314	criterion not met
Oc1ccc2c3c1O[C@H]1C(=NOc4ccccc4)CC[C@@]4(O)[C@@H](C2)N(CC2CC2)CC[C@]314	criterion not met
Oc1ccc2c3c1O[C@H]1C(=NOC4CCCCC4)CC[C@@]4(O)[C@@H](C2)N(CC2CC2)CC[C@]314	criterion met
Oc1ccc2c3c1O[C@H]1C(=NOC4CCCC4)CC[C@@]4(O)[C@@H](C2)N(CC2CC2)CC[C@]314	criterion met
Oc1ccc2c3c1O[C@H]1C(=NOCCCc4ccccc4)CC[C@@]4(O)[C@@H](C2)N(CC2CC2)CC[C@]314	criterion not met
Oc1ccc2c3c1O[C@H]1C(=NOC45CC6CC(CC(C6)C4)C5)CC[C@@]4(O)[C@@H](C2)N(CC2CC2)CC[C@]314	criterion not met
N#Cc1ccc(ON=C2CC[C@@]3(O)[C@H]4Cc5ccc(O)c6c5[C@@]3(CCN4CC3CC3)[C@H]2O6)cc1	criterion not met
